Target Or System: Drosophila OR10a (Drosophila melanogaster)
Construct: expressed in transfected cells
Sequence (Q9VYZ1 whole entry, one chain of several): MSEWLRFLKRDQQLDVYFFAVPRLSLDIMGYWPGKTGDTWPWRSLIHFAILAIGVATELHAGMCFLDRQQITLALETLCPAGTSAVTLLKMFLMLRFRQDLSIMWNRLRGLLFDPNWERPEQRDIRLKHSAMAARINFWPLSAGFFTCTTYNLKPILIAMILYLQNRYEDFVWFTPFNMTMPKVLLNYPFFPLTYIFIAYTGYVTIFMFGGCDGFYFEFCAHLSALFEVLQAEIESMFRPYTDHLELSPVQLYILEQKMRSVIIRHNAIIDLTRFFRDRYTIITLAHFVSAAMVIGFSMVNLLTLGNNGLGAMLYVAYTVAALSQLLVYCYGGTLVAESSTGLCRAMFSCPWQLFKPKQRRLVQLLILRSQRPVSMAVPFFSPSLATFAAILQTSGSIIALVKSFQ
Assay Details: Calcium ion fluorescence (GCaMP6) assay, OR10a stable HEK293 cell line
Type: cell-based
Condition Parameters: HEK293, 100 μM VOC; 50 μM VUAA1 = 1; responses not exceeding 0.05 considered 0; read-out: OR10a Average response (VUAA1-normalized)
Each entry below carries its recorded activation at 100 µM.
Measured Endpoint: activation at 100 µM (%)

>>> numeric_result("COc1cccc(OC)c1 [1,3-dimethoxy benzene]")
0
>>> numeric_result("CCCCCC(=O)OCC [ethyl hexanoate]")
8.51
>>> numeric_result("CCCCC(C)O (stereo not shown) [2-hexanol]")
0
>>> numeric_result("Cc1ccc(O)cc1 [4-methylphenol]")
6.62
>>> numeric_result("C=CC(O)C/C=C\\CC (stereo not shown) [(5Z)-octa-1,5-dien-3-ol]")
0
>>> numeric_result("CCOC(=O)CC [ethyl propionate]")
0
>>> numeric_result("CCCC(O)CC (stereo not shown) [3-hexanol]")
6
>>> numeric_result("CCCCCC(O)CC (stereo not shown) [3-octanol]")
6
>>> numeric_result("C=CC(O)CCCCC (stereo not shown) [1-octen-3-ol]")
4.52
>>> numeric_result("CCCCCCCO [1-heptanol]")
0
>>> numeric_result("C=CC(C)(O)CCC=C(C)C (stereo not shown) [linalool]")
0
>>> numeric_result("CCCCCC(C)O (stereo not shown) [2-heptanol]")
0
>>> numeric_result("O=Cc1ccccc1 [benzaldehyde]")
17
>>> numeric_result("COC(=O)c1ccccc1O [methyl salicylate]")
95
>>> numeric_result("CC/C=C\\CCOC(C)=O [z3-hexenyl acetate]")
0
>>> numeric_result("C=C1CC/C=C(\\C)CC[C@@H]2[C@@H]1CC2(C)C [(-)-trans-caryophyllene]")
6.61
>>> numeric_result("CCCCCCCCC(CO)CCCCCC (stereo not shown) [2-hexyl-1-decanol]")
19
>>> numeric_result("CCCCCCCCC=O [nonanal]")
0
>>> numeric_result("C=CCc1ccc(O)c(OC)c1 [eugenol]")
0
>>> numeric_result("CCCC(=O)OCC [ethyl butyrate]")
2.76
>>> numeric_result("CCCCCO [1-pentanol]")
0
>>> numeric_result("COC(=O)c1ccccc1 [methyl benzoate]")
67
>>> numeric_result("CCCCCCCCCCCCCC [tetradecane]")
8
>>> numeric_result("OCCc1ccccc1 [phenethyl alcohol]")
3
>>> numeric_result("Cc1cccc(O)c1 [3-methylphenol]")
13
>>> numeric_result("CC(=O)c1ccccc1 [acetophenone]")
24
>>> numeric_result("CCCCCCCCCC=O [decanal]")
0
>>> numeric_result("CCCCCC(C)=O [2-heptanone]")
4

###

Target Or System: Drosophila OR49b (Drosophila melanogaster, UniProt Q9V6H2)
Construct: expressed in transfected cells
Sequence (Q9V6H2 1-375): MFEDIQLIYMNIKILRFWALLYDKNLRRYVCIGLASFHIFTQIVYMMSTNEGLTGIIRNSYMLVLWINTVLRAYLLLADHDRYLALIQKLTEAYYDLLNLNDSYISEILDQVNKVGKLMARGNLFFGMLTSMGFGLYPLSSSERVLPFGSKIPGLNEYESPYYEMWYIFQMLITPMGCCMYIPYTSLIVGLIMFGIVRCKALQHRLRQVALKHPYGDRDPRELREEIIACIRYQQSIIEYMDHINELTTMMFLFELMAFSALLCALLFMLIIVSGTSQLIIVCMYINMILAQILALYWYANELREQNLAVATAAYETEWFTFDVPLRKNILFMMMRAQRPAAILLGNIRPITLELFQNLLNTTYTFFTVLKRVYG
Sequence (Q9VNB5 1-486 partner): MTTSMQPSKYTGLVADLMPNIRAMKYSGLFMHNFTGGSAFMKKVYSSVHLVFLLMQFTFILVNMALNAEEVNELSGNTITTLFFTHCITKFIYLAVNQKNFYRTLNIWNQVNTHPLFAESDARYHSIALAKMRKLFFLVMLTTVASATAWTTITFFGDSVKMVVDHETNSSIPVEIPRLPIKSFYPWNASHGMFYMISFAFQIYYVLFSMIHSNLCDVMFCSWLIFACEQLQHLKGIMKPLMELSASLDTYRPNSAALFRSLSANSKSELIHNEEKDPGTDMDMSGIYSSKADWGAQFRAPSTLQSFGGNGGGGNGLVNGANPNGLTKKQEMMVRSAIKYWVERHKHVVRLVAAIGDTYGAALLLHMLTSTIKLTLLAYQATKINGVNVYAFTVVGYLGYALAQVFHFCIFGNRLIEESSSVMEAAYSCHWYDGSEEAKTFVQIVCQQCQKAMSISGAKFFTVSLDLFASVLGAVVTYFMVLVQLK
Assay Details: cell-based
Condition Parameters: ligand concentration 100 (unit not given); threshold 0.05, below shown as 0
DF norm AVERAGE OR49b values for the molecules below.
Measured Endpoint: DF norm AVERAGE OR49b

>>> numeric_result("COC(=O)c1ccccc1O [methyl salicylate]")
0.1238
>>> numeric_result("CC/C=C/CCO")
0.07888
>>> numeric_result("CCCCOC(=O)CC [butyl propanoate]")
0
>>> numeric_result("C=CC(C)(O)CCC=C(C)C (stereo not shown)")
0
>>> numeric_result("C=CCc1ccc(O)c(OC)c1")
0
>>> numeric_result("C=C(C)[C@H]1CC=C(C)CC1")
0
>>> numeric_result("COC(=O)c1ccccc1 [methyl benzoate]")
0
>>> numeric_result("CC1=CC[C@@H](C(C)(C)O)CC1")
0
>>> numeric_result("CC(=O)OCCC(C)C [isopentyl acetate]")
0.1516
>>> numeric_result("CCc1ccccc1")
0.3273
>>> numeric_result("C=C1CCC2CC1C2(C)C (stereo not shown)")
0
>>> numeric_result("C=C1CCC2(C(C)C)CC12 (stereo not shown)")
0
>>> numeric_result("CC(=O)OCC(C)C [isobutyl acetate]")
0

###

Target Or System: Drosophila OR85b (Drosophila melanogaster)
Construct: expressed in transfected cells
Sequence (Q9VHQ7 whole entry, one chain of several): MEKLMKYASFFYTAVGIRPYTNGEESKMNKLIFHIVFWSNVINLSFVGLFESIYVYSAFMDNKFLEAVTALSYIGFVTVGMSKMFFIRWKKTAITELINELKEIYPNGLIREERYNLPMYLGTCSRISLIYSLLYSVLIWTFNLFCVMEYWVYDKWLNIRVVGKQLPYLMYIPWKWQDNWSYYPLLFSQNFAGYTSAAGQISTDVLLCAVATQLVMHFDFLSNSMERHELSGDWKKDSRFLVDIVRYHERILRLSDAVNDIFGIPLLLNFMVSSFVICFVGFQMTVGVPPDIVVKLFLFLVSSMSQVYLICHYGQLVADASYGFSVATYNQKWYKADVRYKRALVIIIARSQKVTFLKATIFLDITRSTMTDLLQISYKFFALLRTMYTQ
Assay Details: Calcium ion fluorescence (GCaMP6) assay, OR85b stable HEK293 cell line
Type: cell-based
Condition Parameters: OR85b cell line; cc. 100 µM; VUAA1-normalized response, mean of biological replicates
Protocol: These VUAA1 normalized ∆F values were used to compare the different receptors and ligands. The concentration-dependent effect of the reference ligands on their cognate cell lines was examined in more detail. Twelve different ligand concentrations were measured on each cell line in an overall 0.01 μM to 100 μM concentration range with 5 repetitions with three technical replicates each time. […]
Below, each entry is listed alongside its reported Average response.
Measured Endpoint: Average response

>>> numeric_result("Cc1cccc(C)c1")
0.09
>>> numeric_result("CCCCCCCCC=O")
0.00
>>> numeric_result("C=Cc1ccccc1")
0.0181
>>> numeric_result("O=Cc1ccccc1")
0.00
>>> numeric_result("CCCCC(C)=O")
0.0338
>>> numeric_result("CCCCCC(=O)OCC [ethyl hexanoate]")
0.0232
>>> numeric_result("CC1=CC[C@@H](C(C)(C)O)CC1")
0.02
>>> numeric_result("Cc1ccc(C)c(C)c1")
0.12
>>> numeric_result("Cc1ccccc1")
0.11
>>> numeric_result("CC/C=C/CCO")
0.0284
>>> numeric_result("CCCCCC(C)=O")
0.55
>>> numeric_result("CCCCCC(O)CC (centres unmarked)")
0.0171
>>> numeric_result("Cc1ccc(C)cc1")
0.06
>>> numeric_result("Cc1ccccc1C")
0.08
>>> numeric_result("C=C(C)[C@H]1CC=C(C)CC1 [limonene]")
0.0644
>>> numeric_result("CCCCOC(C)=O [butyl acetate]")
0.00
>>> numeric_result("CCCC(=O)OCC [ethyl butyrate]")
0.0224
>>> numeric_result("OCCc1ccccc1")
0.04
>>> numeric_result("CC/C=C\\CCO")
0.00
>>> numeric_result("C=CC(C)(O)CCC=C(C)C (centres unmarked)")
0.06
>>> numeric_result("C=CC(O)CCCCC (centres unmarked)")
0.08
>>> numeric_result("Cc1ccc(C(C)C)cc1")
0.09
>>> numeric_result("CCCCCCCCCCC")
0.11
>>> numeric_result("CCCCCCCCCC=O")
0.00
>>> numeric_result("COC(=O)c1ccccc1 [methyl benzoate]")
0.00
>>> numeric_result("CC1=CCC23CC1C(C)(C)C2CCC3C (centres unmarked)")
0.26
>>> numeric_result("CCCCCC(=O)CC")
0.09
>>> numeric_result("C=CC(O)C/C=C\\CC (centres unmarked)")
0.00
>>> numeric_result("CC(C)=CCC/C(C)=C/CC/C(C)=C/CO")
0.00

###

We begin with a simple list: items and their reported DF norm AVERAGE OR71a.
Target Or System: Drosophila OR71a (Drosophila melanogaster)
Construct: expressed in transfected cells
Sequence (Q9VUK5 whole entry, one chain of several): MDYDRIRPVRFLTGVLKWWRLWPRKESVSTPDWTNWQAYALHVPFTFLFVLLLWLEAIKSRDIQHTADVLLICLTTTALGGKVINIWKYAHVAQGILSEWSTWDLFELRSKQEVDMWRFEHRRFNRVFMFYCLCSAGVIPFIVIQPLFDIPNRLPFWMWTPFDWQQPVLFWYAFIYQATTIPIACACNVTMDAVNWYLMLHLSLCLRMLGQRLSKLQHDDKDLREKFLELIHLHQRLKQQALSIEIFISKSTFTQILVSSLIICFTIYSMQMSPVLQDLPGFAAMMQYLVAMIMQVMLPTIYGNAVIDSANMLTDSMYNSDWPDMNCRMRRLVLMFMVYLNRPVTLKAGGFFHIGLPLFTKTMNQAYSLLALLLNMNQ
Assay Details: Calcium ion fluorescence (GCaMP6) assay, OR71a stable HEK293 cell line
Type: cell-based
Condition Parameters: concentration 10; normalized fluorescence change, values below 0.05 threshold given as 0
Measured Endpoint: DF norm AVERAGE OR71a

>>> numeric_result("CCCCCO [1-pentanol]")
0
>>> numeric_result("C=C(C)[C@H]1CC=C(C)CC1 [(R)-(+)-limonene]")
0
>>> numeric_result("CCCCCC(C)=O [2-heptanone]")
0.1157
>>> numeric_result("CCCCCC(O)CC (stereo not drawn) [3-octanol]")
0
>>> numeric_result("C=C1CC/C=C(\\C)CC[C@@H]2[C@@H]1CC2(C)C [(-)-trans-caryophyllene]")
0
>>> numeric_result("CC1=CCC2C(C1)C2(C)C (stereo not drawn) [3-carene]")
0

Where do the numbers come from? From paper PMC10709440.
